Recorded values, source ChEMBL document CHEMBL3885861.

- Species: Rattus norvegicus
- test description: Open TG-GATES - Regimen: Daily Repeat
- Assay type: toxicity, organism-based, Sprague-Dawley
- Design: regimen Daily Repeat, gender Male, age 6 weeks
- assay context: in vivo, po, 300 mg/kg, 72 h, tissue Plasma, route gavage, dose level Middle, time 3 day
List of AST values.
recorded endpoint: AST (IU/L)

• COC1=CC(=O)C[C@@H](C)[C@]12Oc1c(Cl)c(OC)cc(OC)c1C2=O = 68.2
• COc1ccc2[nH]c([S+]([O-])Cc3ncc(C)c(OC)c3C)nc2c1 (stereo not given) = 61.4
• CCOc1ccc(NC(=O)CC(C)O)cc1 (stereo not given) = 68.2
• CCOC(=O)CCC(=O)O[C@H]1[C@H](O[C@@H]2[C@@H](C)[C@H](O[C@H]3C[C@@](C)(OC)[C@@H](O)[C@H](C)O3)[C@@H](C)C(=O)O[C@H](CC)[C@@](C)(O)[C@H](O)[C@@H](C)C(=O)[C@H](C)C[C@@]2(C)O)O[C@H](C)C[C@@H]1N(C)C [ERYTHROMYCIN ETHYLSUCCINATE] = 76
• NC(N)=Nc1nc(CSCCC(N)=NS(N)(=O)=O)cs1 = 65

###

List of TC values.
- Organism: Rattus norvegicus
- test description: Open TG-GATES - Regimen: Daily Repeat
- Type: toxicity, organism-based, Sprague-Dawley
- Parameters: regimen Daily Repeat, gender Male, age 6 weeks
- assay context: in vivo, po, 100 mg/kg, 72 h, tissue Plasma, route gavage, dose level Low, time 3 day
recorded endpoint: TC

- CCOC(=O)CCC(=O)O[C@H]1[C@H](O[C@@H]2[C@@H](C)[C@H](O[C@H]3C[C@@](C)(OC)[C@@H](O)[C@H](C)O3)[C@@H](C)C(=O)O[C@H](CC)[C@@](C)(O)[C@H](O)[C@@H](C)C(=O)[C@H](C)C[C@@]2(C)O)O[C@H](C)C[C@@H]1N(C)C [ERYTHROMYCIN ETHYLSUCCINATE]: 69.2 mg/dL
- CCOc1ccc(NC(=O)CC(C)O)cc1 (stereo not given): 82 mg/dL
- COc1ccc2[nH]c([S+]([O-])Cc3ncc(C)c(OC)c3C)nc2c1 (stereo not given): 72.6 mg/dL
- COC1=CC(=O)C[C@@H](C)[C@]12Oc1c(Cl)c(OC)cc(OC)c1C2=O: 80.6 mg/dL
- NC(N)=Nc1nc(CSCCC(N)=NS(N)(=O)=O)cs1: 73.8 mg/dL

###

List of RALB values.
- Organism: Rattus norvegicus
- test description: Open TG-GATES - Regimen: Single
- Format: toxicity, organism-based, Sprague-Dawley
- Parameters: regimen Single, gender Male, age 6 weeks
- assay context: in vivo, po, 0 mg/kg, 6 h, tissue Plasma, route gavage, dose level Control
recorded endpoint: RALB (g/dL)

• CC/C(=C(\c1ccccc1)c1ccc(OCCN(C)C)cc1)c1ccccc1 = 2.6
• CN(C)CCN(Cc1cccs1)c1ccccn1 = 2.9
• COC1=CC(=O)C[C@@H](C)[C@]12Oc1c(Cl)c(OC)cc(OC)c1C2=O = 3.4
• CN(C)CCCN1c2ccccc2CCc2ccc(Cl)cc21 = 2.6
• CC(C)OC(=O)C(C)(C)Oc1ccc(C(=O)c2ccc(Cl)cc2)cc1 [FENOFIBRATE] = 2.5
• CCOC(=O)CCC(=O)O[C@H]1[C@H](O[C@@H]2[C@@H](C)[C@H](O[C@H]3C[C@@](C)(OC)[C@@H](O)[C@H](C)O3)[C@@H](C)C(=O)O[C@H](CC)[C@@](C)(O)[C@H](O)[C@@H](C)C(=O)[C@H](C)C[C@@]2(C)O)O[C@H](C)C[C@@H]1N(C)C [ERYTHROMYCIN ETHYLSUCCINATE] = 3
• COc1ccc2[nH]c([S+]([O-])Cc3ncc(C)c(OC)c3C)nc2c1 (configuration not stated) = 3.3
